- protocol notes: melting temperature; melt of duplexes
- stated conditions: sodium 0.0675 M; strand 1 µM
reported property: Tm (°C)
Output spec: scalar in °C, unitless text.

substance | Tm (°C)
CGACGTGCAAAATGTGCTG+CAGCACATGGCGCACGTCG ((((((((...((((((((+))))))))...)))))))) | 54

Req: Which Tm value belongs to CGACGTGCTGGATGTGCTG+CAGCACATAATGCACGTCG ((((((((...((((((((+))))))))...)))))))) ?
Resp: 50.7

Req: # Tm lookup, item CGACGTGCGGCATGTGCTG+CAGCACATTTTGCACGTCG ((((((((...((((((((+))))))))...))))))))
Resp: 48.7

Req: Fill blank: measured Tm of the substance CGACGTGCCCAATGTGCTG+CAGCACATCTTGCACGTCG ((((((((...((((((((+))))))))...)))))))) is ____.
Resp: 48.1

Req: # lookup: Tm of CGACGTGCTACATGTGCTG+CAGCACATCCGGCACGTCG ((((((((...((((((((+))))))))...))))))))
Resp: 48.7

Req: Item CGACGTGCTTTATGTGCTG+CAGCACATACCGCACGTCG ((((((((..(((((((((+)))))))))..)))))))) has what recorded Tm?
Resp: 48.3

---

- protocol notes: melting temperature; UV melt of duplexes
- stated conditions: sodium 1.02 M; strand 2 µM
For each record, check the reported Tm: if it is below 70 °C write Condition met, else write Condition not met.

Would you please look over these solved cases?
substance | label class
TATTGAGAACAAGTGTCCGATTAGCAGAAA+TTTCTGCTAATCGGACACTTGTTCTCAATA ((((((((((((((((((((((((((((((+)))))))))))))))))))))))))))))) | Condition not met
GTTCTATACTCTTGAAGTTGATTAC+GTAATCAACTTCAAGAGTATAGAAC (((((((((((((((((((((((((+))))))))))))))))))))))))) | Condition met
ACCGACGACGCTGATCCGAT+ATCGGATCAGCGTCGTCGGT ((((((((((((((((((((+)))))))))))))))))))) | Condition not met
AGCAAGTCGAGCAGGGCCTACGTTT+AAACGTAGGCCCTGCTCGACTTGCT (((((((((((((((((((((((((+))))))))))))))))))))))))) | Condition not met

Query substance follows.
Req: Is Tm of TGATTCTACCTATGTGATTT+AAATCACATAGGTAGAATCA ((((((((((((((((((((+)))))))))))))))))))) strictly below 70 °C?
Resp: Condition met

---

- protocol notes: melting temperature; UV melt of duplexes
- stated conditions: sodium 0.12 M; strand 2 µM
Friendly reminder: Tm below 70 °C is 1.0, at or above is 0.0.

# example entries with known answers
substance | label class
AGCAAGTCGAGCAGGGCCTACGTTT+AAACGTAGGCCCTGCTCGACTTGCT (((((((((((((((((((((((((+))))))))))))))))))))))))) | 0.0
CGGGACCAACTAAAGGAAAT+ATTTCCTTTAGTTGGTCCCG ((((((((((((((((((((+)))))))))))))))))))) | 1.0

Req: Is 70 °C strictly greater than the substance's reported Tm? substance: TATTGAGAACAAGTGTCCGATTAGCAGAAA+TTTCTGCTAATCGGACACTTGTTCTCAATA ((((((((((((((((((((((((((((((+))))))))))))))))))))))))))))))
Resp: 1.0

Req: I wonder whether AATATCTCTCATGCGCCAAGCTACA+TGTAGCTTGGCGCATGAGAGATATT (((((((((((((((((((((((((+))))))))))))))))))))))))) has Tm below 70 °C. Can you tell?
Resp: 1.0
